- Test system: TK-10 renal
- experimental_details: NCI tumour cell line growth inhibition, 48 h; in the data active means GI50 below about 0.43 µM; inactive means the rest
The reply should be one of these categories: TRUE = active, FALSE = inactive

Would you please look over these solved cases?
{"smiles_structure": "Cc1cc2nc3c4ccccc4n(CC4=NCCN4)c3nc2cc1C", "label_class": "FALSE"}
{"smiles_structure": "Cc1ccc(-c2ccc(SCC(=O)Nc3ccc(S(N)(=O)=O)cc3Br)nn2)cc1", "label_class": "FALSE"}
{"smiles_structure": "CC[C@@]12CC(C(=O)OC)=C3Nc4cc5c(cc4[C@@]34CCN(C[C@H]3O[C@H]31)[C@@H]24)[C@@H]1[C@H](O5)[C@@H](O)[C@@]2(CC)CC(C(=O)OC)=C3Nc4cc(O)ccc4[C@@]34CCN1[C@@H]24", "label_class": "TRUE"}

Read the next record carefully.
Write down the call the test reported for this compound. Item: CCC(C)(C)c1ccc(OCCCCCCN2CCN(c3ccncc3)CC2)cc1
FALSE

====

- Tested on: MDA-MB-468 breast
- experimental_details: NCI tumour cell line growth inhibition, 48 h; in the data active = GI50 below about 0.43 µM; inactive = the rest
Output constraint: value belongs to t = active, f = inactive

Here are 5 compounds together with their reported answers.
{"compound": "COc1ccc(-c2ccc(-c3ccc(C(=N)N)nc3)s2)cc1", "label_class": "f"}
{"compound": "C[C@]12CC[C@H]3[C@@H](CCC4=CC(=O)CC[C@@H]43)[C@@H]1CC[C@@H]2OC(=O)N(CCCl)N=O", "label_class": "f"}
{"compound": "COc1cc2nc(Cl)nc(Nc3cccc(C(=O)/C=C/c4ccccc4)c3)c2cc1OC", "label_class": "f"}
{"compound": "CCCC(=O)NC(c1cccnc1)c1ccc2c(C)ccnc2c1O (centres undefined)", "label_class": "f"}
{"compound": "COc1cc(Cn2cc3c(c2)-c2oncc2CC3)cc(OC)c1OC", "label_class": "t"}

# fetch the recorded call for COc1ccc(Cn2nc(-c3cc(OC)c(OC)c(OC)c3)c3c2CCc2cnoc2-3)cc1OC here
f

Repeat for the following compound: O=C1C(Cl)=C(N/N=c2/[nH][nH]/c(=N/NC3=C(Cl)C(=O)c4ccccc4C3=O)c3ccccc23)C(=O)c2ccccc21
f

Moving on to CCCN1C(=O)/C(=c2\sc3n(c2=O)C2C(NN=3)N(CC)C(=O)N2CC)c2ccccc21 (centres undefined)
f

Now consider CCN=C1C=CC(=C(c2ccc(N(C)C)cc2)c2ccc(N(C)C)cc2)c2ccccc21 and answer again.
t

====

For each of the compounds below, state its TGI.
- Tested on: MDA-MB-468 breast
- experimental_details: NCI tumour cell line growth inhibition, 48 h
One number for each entry, in nM.

Examples with answers:
{"compound": "OCC1OC(n2ccc3c2ncn2ncnc32)C(O)C1O (stereo not drawn)", "value_measured": 3190}
{"compound": "N=C(N)c1nn(C2OC(CO)C(O)C2O)c2nc[nH]c(=O)c12 (stereo not drawn)", "value_measured": 1690}
{"compound": "CCN=C1C=CC(=C(c2ccc(N(C)C)cc2)c2ccc(N(C)C)cc2)c2ccccc21", "value_measured": 346}
{"compound": "CNC(=O)c1cc(N2CCc3cc(NC(=O)Nc4ccc(N5CCN(C)CC5)c(C(F)(F)F)c4)ccc32)ccn1", "value_measured": 7950}
{"compound": "COc1cc2c(cc1OC)-c1ccc3cc4c(cc3c1N(CCN1CCCC1)C2)OCO4", "value_measured": 2200}

// returns reported TGI for input CC[C@@]12CC(C(=O)OC)=C3Nc4cc5c(cc4[C@@]34CCN(C[C@H]3O[C@H]31)[C@@H]24)[C@@H]1[C@H](O5)[C@@H](O)[C@@]2(CC)CC(C(=O)OC)=C3Nc4cc(O)ccc4[C@@]34CCN1[C@@H]24
320

====

Exercise: state measured TGI for each of the compounds provided.
- Tested on: MDA-MB-468 breast
- experimental_details: NCI tumour cell line growth inhibition, 48 h
Answers are plain numbers, in nM.

Field: example entries. Status: answers known.
{"compound": "CC1=C2C(=C[C@@](C)(COC(=O)c3ccc(S(=O)(=O)F)cc3)[C@@H]2OC(=O)c2ccc(S(=O)(=O)F)cc2)C(=O)[C@](C)(O)C12CC2", "value_measured": 465}
{"compound": "CCN1C(=O)N(CC)C2C1NN=c1s/c(=C3\\C(=O)N(C(C)C)c4ccccc43)c(=O)n12 (centres undefined)", "value_measured": 5580}

Okay, now this compound:
Can you look up the measured TGI of COc1ccc([C@@H]2[C@@H](O)C(=O)N2c2cc(OC)c(OC)c(OC)c2)cc1F for me?
398
